assay-notes: Binding affinity to human KRAS utr-1 G-quadruplex RNA by fluorescence titration method
measured-parameter: Kd (nM)

{"columns": ["smi", "Kd, nM"],
 "data": [
  ["NCCNc1c2c(c(NCCN)c3occc13)C(=O)c1ccccc1C2=O", 75],
  ["NCCNc1c2c(c(NCCN)c3sccc13)C(=O)c1ccccc1C2=O", 91]
]}

----------
assay-notes: Binding affinity to WC RNA hairpin (unknown origin) by fluorescence titration method
pKd: −log10 of the molar value.
measured-parameter: pKd

{"columns": ["smi", "pKd"],
 "data": [
  ["NCCNc1c2c(c(NCCN)c3occc13)C(=O)c1ccccc1C2=O", 6.29],
  ["NCCNc1c2c(c(NCCN)c3sccc13)C(=O)c1ccccc1C2=O", 6.32]
]}
